# tested on: UniProtKB P24941
parameter: IC50 (µM)
Answers are plain numbers, in µM.

What measured IC50 is associated with `COc1cccc2c(C3=C(c4cn(C)c5ccc(Br)cc45)C(=O)NC3=O)coc12` on UniProtKB P24941?
1.16

* * *

# tested on: Cyclin-dependent kinase 2 (Homo sapiens, UniProt P24941)
pIC50: −log10 of the molar value.
parameter: pIC50

What measured pIC50 is associated with `COc1cccc2c(C3=C(c4cn(C)c5cc(I)c(F)cc45)C(=O)NC3=O)coc12` on Cyclin-dependent kinase 2 (Homo sapiens, UniProt P24941)?
< 4.30

* * *

# tested on: Cyclin-dependent kinase 1/cyclin B1 (Homo sapiens, UniProt P06493)
# Sequence (P06493 whole entry): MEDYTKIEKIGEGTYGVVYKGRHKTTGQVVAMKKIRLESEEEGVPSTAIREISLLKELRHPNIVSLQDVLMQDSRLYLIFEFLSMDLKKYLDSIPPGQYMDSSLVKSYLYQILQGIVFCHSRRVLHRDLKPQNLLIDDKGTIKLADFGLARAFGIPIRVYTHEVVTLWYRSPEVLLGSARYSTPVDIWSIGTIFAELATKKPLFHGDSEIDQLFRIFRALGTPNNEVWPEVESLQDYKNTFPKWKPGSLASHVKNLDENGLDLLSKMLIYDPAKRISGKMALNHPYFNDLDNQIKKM
# Sequence (P14635 whole entry, further chain): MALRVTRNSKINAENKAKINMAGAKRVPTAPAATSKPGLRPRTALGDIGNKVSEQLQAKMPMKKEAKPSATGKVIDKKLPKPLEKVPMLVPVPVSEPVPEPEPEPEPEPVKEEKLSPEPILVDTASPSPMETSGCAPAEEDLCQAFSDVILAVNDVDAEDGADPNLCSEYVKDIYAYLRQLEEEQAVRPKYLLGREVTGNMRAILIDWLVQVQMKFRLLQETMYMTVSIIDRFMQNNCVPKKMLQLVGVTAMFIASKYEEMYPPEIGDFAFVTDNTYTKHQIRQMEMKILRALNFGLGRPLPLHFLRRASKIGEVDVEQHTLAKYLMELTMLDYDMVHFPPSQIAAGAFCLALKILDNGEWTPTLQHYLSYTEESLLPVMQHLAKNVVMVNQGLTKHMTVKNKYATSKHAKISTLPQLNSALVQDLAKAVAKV
# method description: Inhibition of CDK1/Cyclin B
parameter: IC50

Look up IC50 for this molecule: `COc1cccc2c(C3=C(c4cn(C)c5cc(I)c(F)cc45)C(=O)NC3=O)coc12`
> 50 µM
